# study target: AGTR1 (Homo sapiens)
# Construct: host or cells: Pathunter CHO-K1 AGTR1 β-arrestin cell line (CHO-K1)
# Sequence (P30556 whole entry): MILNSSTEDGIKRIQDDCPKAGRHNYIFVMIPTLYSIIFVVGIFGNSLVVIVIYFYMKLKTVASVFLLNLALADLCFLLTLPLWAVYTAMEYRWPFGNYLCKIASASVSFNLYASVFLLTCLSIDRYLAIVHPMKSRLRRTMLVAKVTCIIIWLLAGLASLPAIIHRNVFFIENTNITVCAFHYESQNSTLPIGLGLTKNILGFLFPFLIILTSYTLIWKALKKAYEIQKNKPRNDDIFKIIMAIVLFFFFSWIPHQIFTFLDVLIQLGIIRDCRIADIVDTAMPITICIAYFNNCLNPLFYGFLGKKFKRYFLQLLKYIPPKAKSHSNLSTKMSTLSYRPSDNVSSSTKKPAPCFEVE
# protocol: DiscoveRx β-arrestin2 recruitment assay (enzyme complementation, Pathunter CHO-K1 AGTR1 β-arrestin cell line)
# Assay type: cell-based
pEC50: −log10 of the molar value.

# structure notation, study target, comparative sign, pEC50
data = [
    ("Cc1cnn(-c2ccc(-c3nn[nH]n3)c(-c3ccc(Cn4cnnc4C)cc3)c2)c1", "AGTR1 (Homo sapiens)", "<", 5.00),
    ("Cc1nc(C)n(Cc2ccc(-c3cc(-c4ccccc4)ccc3-c3nn[nH]n3)cc2)n1", "AGTR1 (Homo sapiens)", "=", 5.73),
    ("Cc1cnn(-c2ccc(-c3nn[nH]n3)c(-c3ccc(Cn4nc(C)nc4C)cc3)c2)c1", "AGTR1 (Homo sapiens)", "=", 5.94),
    ("CCCCC1=NC2(CCCC2)C(=O)N1Cc1ccc(-c2cc(Oc3cc(C)ccn3)ccc2-c2nn[nH]n2)cc1", "AGTR1 (Homo sapiens)", "<", 4.00),
    ("Cc1ccnc(-c2ccc(-c3nn[nH]n3)c(-c3ccc(Cn4nc(C)nc4C)cc3)c2)c1", "AGTR1 (Homo sapiens)", "=", 6.60),
    ("CCCCC(=O)N(Cc1ccc(-c2cc(N3CC(C)(C)c4ccccc43)ccc2-c2nn[nH]n2)cc1)[C@H](C(=O)O)C(C)C", "AGTR1 (Homo sapiens)", "<", 4.00),
]
